Data provenance: ChEMBL document CHEMBL3044901

system: Oryza sativa; experiment: Phytotoxicity against Oryza sativa exposed to compound spraying at […] measured 7 days post compound treatment by post-emergence glasshouse test; assay type: organism-based; conditions: in vivo, other, 168 h

>  <Mol>
COCCOCON1C(=O)C(c2c(C)cc(C)cc2C)=C(O)C1(C)C

>  <Phytotoxicity (%)>
100

$$$$
>  <Mol>
COCON1C(=O)C(c2c(C)cc(C)cc2C)=C(OC(=O)CC(C)(C)C)C1(C)C

>  <Phytotoxicity (%)>
100

$$$$
>  <Mol>
COC(=O)ON1C(=O)C(c2c(C)cc(C)cc2C)=C(OC(=O)CC(C)(C)C)C1(C)C

>  <Phytotoxicity (%)>
60

$$$$
>  <Mol>
Cc1cc(C)c(C2=C(OC(=O)CC(C)(C)C)C(C)(C)N(OC(=O)C(C)(C)C)C2=O)c(C)c1

>  <Phytotoxicity (%)>
0

$$$$
>  <Mol>
CCON1C(=O)C(c2c(C)cc(C)cc2C)=C(O)C1(C)C

>  <Phytotoxicity (%)>
100

$$$$
>  <Mol>
Cc1cc(C)c(C2=C(O)C(C)(C)N(OCC3CCCCC3)C2=O)c(C)c1

>  <Phytotoxicity (%)>
60

$$$$
